Reference source: the supplement of paper PMC10567573

B1: TSN (parent)
chain: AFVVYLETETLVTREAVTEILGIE

Variants of: B1
MEASUREMENT_NOTES: protein stability index of a GFP-peptide fusion (GPS, HEK-293T) (PSI 1-6); higher = more stable;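 further: lentivirally expressed fusions sorted by FACS into six bins by GFP to DsRed ratio, PSI derived from sequencing read proportions per bin multiplied by bin number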
PROTOCOL_CONDITIONS: c terminus: a fixed tail appended
Lab note: anything with protein stability index at or over 3 counts as class 1; the rest go in class 0.

Examples with answers:
Y5Q = class 0
G22S = class 0
T8I = class 0
G22R = class 1
T18L = class 0
T13G = class 0
E15I = class 1
Y5K = class 0
L11R = class 0
T13A = class 0

Dear colleague, could you confirm whether T18E has protein stability index at or above 3? class 1

Dear colleague, could you confirm whether I23Y has protein stability index at or above 3? class 1

Dear colleague, could you confirm whether V4R has protein stability index at or above 3? class 0

Dear colleague, could you confirm whether E19I has protein stability index at or above 3? class 0

Dear colleague, could you confirm whether L21A has protein stability index at or above 3? class 1
